Test system: UACC-257
assay summary: NCI tumour cell line growth inhibition, 48 h
Activity calls are given as the source filed them. Rule as the data show it: active = GI50 up to about 1.1 µM and inactive = higher.
experimental readout: GI50

                                    compound  experimental_readout            obs_value
 0  C/N=C(\N)c1ccc(NC(=N)c2ccc(C(=N)Nc3ccc(/C(N)=N/C)cc3)cc2)cc1                  GI50  > 100 µM (inactive)
 1       NC(=S)N/N=C\CC(O)(C(F)(F)F)C(F)(F)F                  GI50   > 10 µM (inactive)
 2      COCCc1c(C)c(C#N)c2n(C)c3ccccc3n2c1=O                  GI50   > 10 µM (inactive)
 3    CCN(CCCl)CCCCNc1c2ccccc2nc2ccc(OC)cc12                  GI50   2.67 µM (inactive)
 4  Nc1ncc2c(n1)-c1ccccc1OC2N1CCCC1 (stereo not given)                  GI50  > 100 µM (inactive)
 5  NCC1(N2CCOCC2)C2CCCC21CO (stereo not given)                  GI50  > 100 µM (inactive)
 6              CCc1n[nH]c(=O)n1-n1c(C)ccc1C                  GI50  > 100 µM (inactive)
 7  Nc1ccc(C(=O)CC2(O)C(=O)Nc3c(Cl)cc(Cl)cc32)cc1 (stereo not given)                  GI50   75.5 µM (inactive)
 8  Cc1nc2c(n1-c1ccc(Br)cc1)C(=O)c1ccccc1C2=O                  GI50   19.5 µM (inactive)
 9  Clc1cc(C(c2cc(Cl)sc2Cl)c2cc(Cl)sc2Cl)c(Cl)s1                  GI50  > 100 µM (inactive)
10  CNC1=C(C)C(=O)C(C)=C(C(C)(C)CC(=O)n2cc(F)c(=O)[nH]c2=O)C1=O                  GI50   68.2 µM (inactive)
11               CCOC(=O)c1c(O)nc(O)c(CC)c1C                  GI50  > 100 µM (inactive)
12           Cc1ccc(S(=O)(=O)c2ccc(N)cc2)cc1                  GI50  > 100 µM (inactive)
13  Cc1ccc(C(=O)Nc2ccc(CP(=O)(O)O)cc2CP(=O)(O)O)cc1N                  GI50  > 100 µM (inactive)
14                CCOC(=O)C(=O)Nc1cccc(C)c1C                  GI50  > 100 µM (inactive)
15            CC(=O)N(C)c1ccc(/N=C/N(C)C)cc1                  GI50  > 100 µM (inactive)
16  CC(=O)Nc1ccc(C(=O)N2N=C(C)/C(=C/c3ccccc3O)C2=O)cc1                  GI50  > 100 µM (inactive)
17  Cc1c(N(Cc2ccccc2)Cc2ccccc2)nc(S(C)(=O)=O)nc1S(C)(=O)=O                  GI50   2.09 µM (inactive)
18      Cc1ccc(/C=N/C23CC4CC(CC(C4)C2)C3)cc1                  GI50  > 100 µM (inactive)
19  O=C(O)CCC1(Br)CCCCC(Br)C1=O (stereo not given)                  GI50  > 100 µM (inactive)
20          O=C(/N=N/c1ccccc1Br)NNc1ccccc1Br                  GI50  > 100 µM (inactive)
21        Nc1ccc2c(c1)NC(=O)[C@@H]1CCCN1C2=O                  GI50  > 100 µM (inactive)
22  COc1cc2c(c(OC)c1OC)[C@@H]1CCCCC[C@@H]1CCC2=O                  GI50   59.7 µM (inactive)
23         CC(=O)Oc1ccc2c(=O)c(C(C)=O)coc2c1                  GI50  > 100 µM (inactive)
24                      O=C(OCCOCBr)c1ccccc1                  GI50  > 100 µM (inactive)
